- Tested on: Melanocortin receptor 1 (Xenopus laevis)
- ASSAY REMARKS: Antagonistic activity towards Melanocortin 1 receptor in Xenopus frog skin using competitive binding in the presence of 500 pM of alpha-melanocyte stimulating hormone.
ASSAY ENDPOINT: IC50

chemical_string=CC(C)[C@H](NC(=O)[C@@H]1CCC(=O)NCCCCCC(=O)N[C@@H](Cc2c[nH]cn2)C(=O)N[C@@H](Cc2ccccc2)C(=O)N[C@@H](CCCN=C(N)N)C(=O)N[C@@H](Cc2c[nH]c3ccccc23)C(=O)N1)C(=O)N[C@H](C(=O)NCC(N)=O)C(C)C target_entity="Melanocortin receptor 1 (Xenopus laevis)" value="Not Active"
chemical_string=CC(C)[C@H](NC(=O)[C@@H]1CCC(=O)NCCCCCC(=O)N[C@@H](Cc2c[nH]cn2)C(=O)N[C@H](Cc2ccccc2)C(=O)N[C@@H](CCCN=C(N)N)C(=O)N[C@@H](Cc2c[nH]c3ccccc23)C(=O)N1)C(=O)N[C@H](C(=O)NCC(N)=O)C(C)C target_entity="Melanocortin receptor 1 (Xenopus laevis)" value="Not Active"
chemical_string=CC(C)[C@H](NC(=O)[C@@H]1CCC(=O)NCC(=O)N[C@@H](Cc2c[nH]cn2)C(=O)N[C@H](Cc2ccc3ccccc3c2)C(=O)N[C@@H](CCCN=C(N)N)C(=O)N[C@@H](Cc2c[nH]c3ccccc23)C(=O)N1)C(=O)N[C@H](C(=O)NCC(N)=O)C(C)C target_entity="Melanocortin receptor 1 (Xenopus laevis)" value="Not Active"

* * *

- TARGET ENTITY: Melanocortin receptor 1 (Xenopus laevis)
- ASSAY REMARKS: Agonistic activity towards Melanocortin 1 receptor in the Xenopus frog skin assay
ASSAY ENDPOINT: pEC50
Please treat pEC50 as minus the base-10 logarithm of the molar concentration.

chemical_string=CC(C)[C@H](NC(=O)[C@@H]1CCC(=O)NCCCCCC(=O)N[C@@H](Cc2c[nH]cn2)C(=O)N[C@H](Cc2ccccc2)C(=O)N[C@@H](CCCN=C(N)N)C(=O)N[C@@H](Cc2c[nH]c3ccccc23)C(=O)N1)C(=O)N[C@H](C(=O)NCC(N)=O)C(C)C value=7.64

Exercise: Lookup: pEC50 / Melanocortin receptor 1 (Xenopus laevis) / CC(C)[C@H](NC(=O)[C@@H]1CCC(=O)N[C@@H](Cc2c[nH]cn2)C(=O)N[C@H](Cc2ccc3ccccc3c2)C(=O)N[C@@H](CCCN=C(N)N)C(=O)N[C@@H](Cc2c[nH]c3ccccc23)C(=O)N1)C(=O)N[C@H](C(=O)NCC(N)=O)C(C)C
Key: 7.22

* * *

- TARGET ENTITY: Melanocortin receptor 1 (Xenopus laevis)
- ASSAY REMARKS: Agonistic activity towards Melanocortin 1 receptor in the Xenopus frog skin assay
Entries and their pEC50 values follow.
By convention, pEC50 is the negative base-10 log of a molar concentration.

chemical_string=CC(C)[C@H](NC(=O)[C@@H]1CCC(=O)NCCCC(=O)N[C@@H](Cc2cnc[nH]2)C(=O)N[C@H](Cc2ccc3ccccc3c2)C(=O)N[C@@H](CCCNC(=N)N)C(=O)N[C@@H](Cc2c[nH]c3ccccc23)C(=O)N1)C(=O)N[C@H](C(=O)NCC(N)=O)C(C)C value=7.64
chemical_string=CC(C)[C@H](NC(=O)[C@@H]1CCC(=O)NCCC(=O)N[C@@H](Cc2cnc[nH]2)C(=O)N[C@H](Cc2ccccc2)C(=O)N[C@@H](CCCNC(=N)N)C(=O)N[C@@H](Cc2c[nH]c3ccccc23)C(=O)N1)C(=O)N[C@H](C(=O)NCC(N)=O)C(C)C value=7.51

Exercise: Field request: pEC50 | item: CC(C)[C@H](NC(=O)[C@@H]1CCC(=O)NCCCC(=O)N[C@@H](Cc2c[nH]cn2)C(=O)N[C@@H](Cc2ccccc2)C(=O)N[C@@H](CCCN=C(N)N)C(=O)N[C@@H](Cc2c[nH]c3ccccc23)C(=O)N1)C(=O)N[C@H](C(=O)NCC(N)=O)C(C)C
Key: 5.57

Where do these numbers come from? They come from ChEMBL document CHEMBL1136811.
